Measured on: Neurogenic locus notch homolog protein 2 (Homo sapiens)
Test method notes: Notch2 binders on small-molecule microarrays, primary screen, biochemical, small-molecule microarray, 635 nm fluorescence, stem cell growth factors (AID 1073)
Conditions: Notch2 binding, higher = more signal
Measured property: composite z-score

>  <Compound>
CC(=O)OC[C@H]1O[C@H](CC=NOC(C)CN2CCCCc3nc(C)c(C)cc32)C=C[C@@H]1OC(C)=O (stereo partly specified)

>  <Measured property>
composite z-score

>  <Observed>
0.965

$$$$
>  <Compound>
O=C1C2=CC[C@H]3C(=O)N(C[C@@H]4CCCO4)C(=O)[C@H]3[C@H]2[C@H](O)[C@@H]2O[C@H]12

>  <Measured property>
composite z-score

>  <Observed>
-0.0143

$$$$
>  <Compound>
CC(CCC(=O)OC[C@H]1O[C@H](C#Cc2ccccc2)C=C[C@@H]1Oc1ccc(C)cc1)=NO[C@H](C)c1cn([C@@H]2COC[C@H]2O)nn1

>  <Measured property>
composite z-score

>  <Observed>
-0.31

$$$$
>  <Compound>
O=C1C[C@@H](O)[C@@H](O)[C@@H]2[C@@H]3C(=O)N(Cc4ccccc4)C(=O)[C@@H]3CC[C@H]12

>  <Measured property>
composite z-score

>  <Observed>
0.438

$$$$
>  <Compound>
C#CCCCON=C1[C@H]2CCn3c(=O)n([C@@H](CC)c4ccccc4)c(=O)n3[C@H]2[C@H](O)[C@@H]2O[C@H]12

>  <Measured property>
composite z-score

>  <Observed>
0.148

$$$$
>  <Compound>
CCOC(=O)[C@H](CC(C)C)NC(=O)CCC1CC(OC(=O)NCc2ccc3c(c2)OCO3)CC2(CCCC(COC(=O)NCCc3ccc(Cl)cc3)O2)O1 (stereo partly specified)

>  <Measured property>
composite z-score

>  <Observed>
0.331

$$$$
>  <Compound>
O=C1CCCC=C1C(O)c1ccc([N+](=O)[O-])cc1 (stereo unspecified)

>  <Measured property>
composite z-score

>  <Observed>
0.254

$$$$
>  <Compound>
CO[C@@H]1COC(=O)[C@H](COCc2ccccc2)NC(=O)CC=C[C@@H](C)[C@H](OC)COC(=O)[C@@H](C)NC(=O)CC=C[C@H]1C

>  <Measured property>
composite z-score

>  <Observed>
-0.45

$$$$
>  <Compound>
CC(=O)OC[C@H]1O[C@H](C#CCCc2ccccc2)C=C[C@@H]1OC(C)=O

>  <Measured property>
composite z-score

>  <Observed>
0.445

$$$$
>  <Compound>
C[C@H]1CC[C@H]2C(=O)O[C@H](CO)CN2[C@@H]1c1ccc(Br)cc1

>  <Measured property>
composite z-score

>  <Observed>
-0.288

$$$$
>  <Compound>
COC(=O)[C@@H]1CC[C@H](C)[C@@H](c2ccc(C)cc2)N1C(=O)c1ccc(C=NOC[C@H]2O[C@H](c3ccccc3)C=C[C@@H]2Oc2ccc(OC)cc2)cc1

>  <Measured property>
composite z-score

>  <Observed>
-0.0637

$$$$
>  <Compound>
C[C@@H]1CC[C@@H](C(=O)O)N[C@H]1c1cccc(N2CCOCC2)c1

>  <Measured property>
composite z-score

>  <Observed>
0.887

$$$$
>  <Compound>
CC1(C)O[C@H]2OC([C@H](O)CON3C(=O)c4ccccc4C3=O)[C@H](O)[C@H]2O1 (stereo partly specified)

>  <Measured property>
composite z-score

>  <Observed>
0.335

$$$$
>  <Compound>
CCOC(=O)[C@H](Cc1ccccc1)NC(=O)CCC1CC(OC(=O)NCc2ccc3c(c2)OCO3)CC2(CCCC(COC(=O)NCCOC)O2)O1 (stereo partly specified)

>  <Measured property>
composite z-score

>  <Observed>
0.994

$$$$
>  <Compound>
CC(=O)OC[C@H]1O[C@H](CCON=C(C)CCN2CCCc3nc(C)c(C)cc32)C=C[C@@H]1OC(C)=O

>  <Measured property>
composite z-score

>  <Observed>
1.19

$$$$
>  <Compound>
CCOC(=O)[C@H](Cc1ccccc1)NC(=O)CCC1CC(OC(=O)NCc2ccc3c(c2)OCO3)CC2(CCCC(COC(=O)NCCc3ccc(Cl)cc3)O2)O1 (stereo partly specified)

>  <Measured property>
composite z-score

>  <Observed>
0.832

$$$$
